Recorded pEC50 by entry
- target entity: cloned human GLP-1 receptor (Homo sapiens)
- Construct: expressed in transfected cells; host or cells: CHO or HEK-293 cells
- Sequence (P43220 24-463): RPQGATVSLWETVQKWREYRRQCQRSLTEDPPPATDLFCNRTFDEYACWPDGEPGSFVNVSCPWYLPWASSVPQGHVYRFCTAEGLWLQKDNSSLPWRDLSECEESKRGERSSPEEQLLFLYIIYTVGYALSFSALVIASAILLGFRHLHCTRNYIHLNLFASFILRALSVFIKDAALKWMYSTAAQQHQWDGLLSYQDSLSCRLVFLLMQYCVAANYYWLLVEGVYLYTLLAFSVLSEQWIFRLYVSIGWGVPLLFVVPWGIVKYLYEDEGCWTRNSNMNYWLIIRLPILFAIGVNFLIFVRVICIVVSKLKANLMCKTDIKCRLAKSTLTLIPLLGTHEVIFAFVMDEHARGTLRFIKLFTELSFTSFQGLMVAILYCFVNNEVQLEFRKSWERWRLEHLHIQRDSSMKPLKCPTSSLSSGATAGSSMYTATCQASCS
- test summary: Functional cell-based assay: cAMP functional assay
pEC50: −log10 of the molar value.
measured metric: pEC50

[[record]]
molecule = "Cc1cccc(C(=O)N2Cc3cc4c(cc3C[C@H]2C(=O)N[C@@H](Cc2ccc(-c3ccc(C#N)cc3)cc2)C(=O)O)NC(=O)C(c2ccc(OCc3ccc(Cl)c(Cl)c3)cc2)O4)c1 (stereo partly drawn) [Example 21]"
target_entity = "cloned human GLP-1 receptor (Homo sapiens)"
recorded_number = 6.40

[[record]]
molecule = "N#Cc1ccc(-c2ccc(C[C@H](NC(=O)[C@@H]3Cc4cc5c(cc4CN3Cc3ccccc3C#N)OC(c3ccc(OCc4ccc(Cl)c(Cl)c4)cc3)C(=O)N5)C(=O)O)cc2)cc1 (stereo partly drawn) [Example 53]"
target_entity = "cloned human GLP-1 receptor (Homo sapiens)"
recorded_number = 5.98

[[record]]
molecule = "N#Cc1ccc(-c2ccc(C[C@H](NC(=O)[C@@H]3Cc4cc5c(cc4CN3Cc3ccccn3)OC(c3ccc(OCc4ccc(Cl)c(Cl)c4)cc3)C(=O)N5)C(=O)O)cc2)cc1 (stereo partly drawn) [Example 39]"
target_entity = "cloned human GLP-1 receptor (Homo sapiens)"
recorded_number = 6.89

[[record]]
molecule = "N#Cc1ccc(-c2ccc(C[C@H](NC(=O)[C@@H]3Cc4cc5c(cc4CN3Cc3ccccc3F)OC(c3ccc(OCc4ccc(Cl)c(Cl)c4)cc3)C(=O)N5)C(=O)O)cc2)cc1 (stereo partly drawn) [Example 41]"
target_entity = "cloned human GLP-1 receptor (Homo sapiens)"
recorded_number = 6.37

[[record]]
molecule = "CSc1nc(CN2Cc3cc4c(cc3C[C@H]2C(=O)N[C@@H](Cc2ccc(-c3ccc(C#N)cc3)cc2)C(=O)O)NC(=O)C(c2ccc(OCc3ccc(Cl)c(Cl)c3)cc2)O4)ccc1C#N (stereo partly drawn) [Example 46]"
target_entity = "cloned human GLP-1 receptor (Homo sapiens)"
recorded_number = 6.00

[[record]]
molecule = "COc1ccc(COc2ccc(C3Oc4cc5c(cc4NC3=O)C[C@@H](C(=O)N[C@@H](Cc3ccc(-c4ccc(C#N)cc4)cc3)C(=O)O)N(C(=O)c3ccccc3)C5)cc2)cc1C(F)(F)F (stereo partly drawn) [Example 62]"
target_entity = "cloned human GLP-1 receptor (Homo sapiens)"
recorded_number = 6.00

